molecular target: N-terminal site of human recombinant ACE (Homo sapiens, UniProt P12821); assay: Inhibition constants with respect to the N-terminal site of ACE (quenched-fluorescence substrate); conditions: first HPLC fraction; substrate Mca-Ala-Ser-Asp-Lys-DpaOH; 25° C., pH 6.8, 50 mM HEPES, 10 mM CaCl2, 200 mM NaCl
Sequence (P12821 30-1306): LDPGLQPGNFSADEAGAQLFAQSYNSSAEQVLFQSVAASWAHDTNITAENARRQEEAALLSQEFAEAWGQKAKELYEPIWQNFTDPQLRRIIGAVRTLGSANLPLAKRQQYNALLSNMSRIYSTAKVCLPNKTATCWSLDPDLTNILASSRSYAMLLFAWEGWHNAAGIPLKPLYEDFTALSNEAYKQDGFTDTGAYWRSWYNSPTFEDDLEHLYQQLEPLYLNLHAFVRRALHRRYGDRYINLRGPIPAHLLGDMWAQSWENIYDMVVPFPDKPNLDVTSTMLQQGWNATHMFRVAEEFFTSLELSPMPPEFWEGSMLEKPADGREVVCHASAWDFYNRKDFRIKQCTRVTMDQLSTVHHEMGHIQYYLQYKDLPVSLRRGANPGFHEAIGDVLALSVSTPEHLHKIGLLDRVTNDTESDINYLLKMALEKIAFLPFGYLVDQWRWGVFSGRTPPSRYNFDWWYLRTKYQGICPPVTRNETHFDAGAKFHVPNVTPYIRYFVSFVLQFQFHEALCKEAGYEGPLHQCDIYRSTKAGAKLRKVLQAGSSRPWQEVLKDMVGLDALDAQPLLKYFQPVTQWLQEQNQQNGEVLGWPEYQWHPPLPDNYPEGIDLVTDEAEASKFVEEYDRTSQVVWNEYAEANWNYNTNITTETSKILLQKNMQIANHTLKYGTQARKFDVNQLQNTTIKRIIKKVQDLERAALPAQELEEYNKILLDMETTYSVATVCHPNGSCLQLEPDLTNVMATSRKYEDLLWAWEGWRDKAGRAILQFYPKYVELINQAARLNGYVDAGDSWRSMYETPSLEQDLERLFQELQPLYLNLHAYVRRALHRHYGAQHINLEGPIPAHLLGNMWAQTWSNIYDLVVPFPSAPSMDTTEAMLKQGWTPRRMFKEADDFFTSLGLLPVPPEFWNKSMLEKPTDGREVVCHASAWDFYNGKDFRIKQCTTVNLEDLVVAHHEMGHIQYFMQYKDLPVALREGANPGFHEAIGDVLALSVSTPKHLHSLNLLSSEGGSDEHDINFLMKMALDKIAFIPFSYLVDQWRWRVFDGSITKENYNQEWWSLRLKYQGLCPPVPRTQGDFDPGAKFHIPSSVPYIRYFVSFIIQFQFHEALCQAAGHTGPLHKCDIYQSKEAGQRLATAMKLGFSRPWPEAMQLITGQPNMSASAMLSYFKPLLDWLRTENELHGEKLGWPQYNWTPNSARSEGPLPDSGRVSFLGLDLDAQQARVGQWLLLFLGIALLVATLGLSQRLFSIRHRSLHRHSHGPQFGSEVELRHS
property: Ki (µM)

[
  {
    "molecule": "CC(NC(=O)OCc1ccccc1)P(=O)(O)C1CCCC1C(=O)NC(CCCc1c[nH]c2ccccc12)C(=O)O (stereo not drawn) [Pseudopeptide E]",
    "study.target": "N-terminal site of human recombinant ACE (Homo sapiens, UniProt P12821)",
    "Ki / µM": 8
  }
]

[a] N=C(N)NCCCC(NC(=O)C1CCCC1P(=O)(O)C(Cc1ccccc1)NC(=O)OCc1ccccc1)C(=O)O (stereo not drawn) [Pseudopeptide D]
[b] O=C(NC(Cc1ccccc1)P(=O)(O)C1CCCC1C(=O)NC(Cc1c[nH]c2ccccc12)C(=O)O)OCc1ccccc1 (stereo not drawn) [Pseudopeptide G]
Data request: # return whichever of a and b has the smaller Ki Output the label that corresponds to your choice.
Data returned: a
(a: 0.2 µM, b: 10 µM)
